Experiment: Stability in buffer at various pH values
Assay type: physicochemical
Settings: pH 8, 37° C., 24 h
Where a name gives a salt, the structure may show the parent alone.
Give measured % test substance after 24 h [F(t = 24 h) × 100/F(t = 0 h)] for each item. Keep answers brief.
Answer format: numeric, % implied, no suffix.

Q: Looking for the measured % test substance after 24 h [F(t = 24 h) × 100/F(t = 0 h)] of CN(C)CC(=O)OCCOc1ccc(-c2c(C#N)c(N)nc(SCc3csc(-c4ccc(Cl)cc4)n3)c2C#N)cc1 , can you help?
A: 76

Q: How about N#Cc1c(N)nc(SCc2csc(-c3ccc(Cl)cc3)n2)c(C#N)c1-c1ccc(OCCOP(=O)(O)O)cc1 ?
A: 100

Q: Cool, now N#Cc1c(N)nc(SCc2csc(-c3ccc(Cl)cc3)n2)c(C#N)c1-c1ccc(OCCOC(=O)[C@@H](N)Cc2ccccc2)cc1 [Example 16, hydrochloride]
A: 100

Q: Also N#Cc1c(N)nc(SCc2csc(-c3ccc(Cl)cc3)n2)c(C#N)c1-c1ccc(OCCOC(=O)CN)cc1 ?
A: 68

Q: Follow-up item: N#Cc1c(N)nc(SCc2csc(-c3ccc(Cl)cc3)n2)c(C#N)c1-c1ccc(OCCOC(=O)[C@@H](N)CCCCN)cc1 [Example 14, dihydrochloride]
A: 76

* * *

Assay: Determination of the solubility (24 h shaking at room temperature, ultracentrifugation, HPLC)
Assay type: physicochemical
Settings: saline or isotonic, thermodynamic from solid, 5% strength aqueous dextrose solution
Where a name gives a salt, the structure may show the parent alone.
experimental readout: solubility at 24 h

Q: Sample N#Cc1c(N)nc(SCc2csc(-c3ccc(Cl)cc3)n2)c(C#N)c1-c1ccc(OCCOC(=O)[C@@H](N)CCCNC(=N)N)cc1 [Example 38, trihydrochloride] — what was its solubility at 24 h?
A: > 500 µg/mL

Q: Try this compound next: N#Cc1c(N)nc(SCc2csc(-c3ccc(Cl)cc3)n2)c(C#N)c1-c1ccc(OCCOC(=O)[C@@H](N)CCCN)cc1 [Example 22, dihydrochloride]
A: > 500 µg/mL

Q: // query: N#Cc1c(N)nc(SCc2csc(-c3ccc(Cl)cc3)n2)c(C#N)c1-c1ccc(OCCO)cc1 [compound (A), reference compound]
A: < 0.1 µg/mL
